Test system: THP-1
method: Antiinflammatory activity in human THP1 cells assessed as inhibition of LPS-induced TNFalpha production after 4 hrs by ELISA
Format: functional, cell-based
experimental-setup: THP-1, 4 h
Reported pIC50 values follow for various compounds
Notebook: values listed as pIC50 are -log10 of the concentration (mol/L).

Before answering, review these 2 worked examples.
{"smiles-code": "CCNC(=O)c1ccc(-c2cnc3ccc(NCc4ccc(Cl)c(Cl)c4)nn23)cc1", "experimental-system": "THP-1", "pIC50": 4.57}
{"smiles-code": "O=C(NC[C@@H]1CCCN1)c1ccc(-c2cnc3ccc(NC4CC4)nn23)cc1", "experimental-system": "THP-1", "pIC50": 5.49}

Next compound, pIC50 to be filled in.
Name the recorded pIC50 for O=C(c1ccc(-c2cnc3ccc(NCC4CC4)nn23)cc1)N1CCC[C@@H]1CN1CCCC1 .
5.68

* * *

Form field: Papp (one value per entry).
method: Apparent permeability of the compound at pH 7.4 by PAMPA method
Type: ADME

{"smiles-code": "O=C(NC[C@@H]1CCCN1)c1ccc(-c2cnc3ccc(NCC4CC4)nn23)cc1", "value-observed": "< 2 ×10⁻⁶ cm/s"}
{"smiles-code": "CN(C)CCNC(=O)c1ccc(-c2cnc3ccc(NCC4CC4)nn23)cc1", "value-observed": "> 50 ×10⁻⁶ cm/s"}
{"smiles-code": "O=C(NC[C@@H]1CCCN1)c1ccc(-c2cnc3ccc(NCc4ccc(Cl)c(Cl)c4)nn23)cc1", "value-observed": "< 2 ×10⁻⁶ cm/s"}

Please look up its Papp: O=C(NC[C@@H]1CCCN1)c1ccc(-c2cnc3ccc(NCc4cccc(Cl)c4)nn23)cc1
< 2 ×10⁻⁶ cm/s

* * *

experimental-system: Mitogen-activated protein kinase 14 (Homo sapiens)
Sequence (Q16539 whole entry): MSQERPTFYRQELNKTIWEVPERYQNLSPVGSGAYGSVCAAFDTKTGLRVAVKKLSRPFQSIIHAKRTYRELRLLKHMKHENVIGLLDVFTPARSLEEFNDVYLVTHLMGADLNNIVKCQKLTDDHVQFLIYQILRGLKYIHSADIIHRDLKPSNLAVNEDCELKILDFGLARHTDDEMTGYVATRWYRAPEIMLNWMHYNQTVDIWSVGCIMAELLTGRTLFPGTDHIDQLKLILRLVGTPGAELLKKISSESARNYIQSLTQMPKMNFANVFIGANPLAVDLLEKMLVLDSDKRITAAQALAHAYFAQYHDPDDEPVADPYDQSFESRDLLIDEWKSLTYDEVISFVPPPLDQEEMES
method: Inhibition of recombinant p38alpha after 15 mins
measured-parameter: IC50

Some compounds with known IC50 results, for comparison:
{"smiles-code": "O=C(NCCN1CCCC1)c1ccc(-c2cnc3ccc(NCc4ccc(Cl)c(Cl)c4)nn23)cc1", "experimental-system": "Mitogen-activated protein kinase 14 (Homo sapiens)", "IC50": "> 100 µM"}
{"smiles-code": "O=C(NC[C@@H]1CCCN1)c1ccc(-c2cnc3ccc(NCc4cccc(Cl)c4)nn23)cc1", "experimental-system": "Mitogen-activated protein kinase 14 (Homo sapiens)", "IC50": "> 100 µM"}
{"smiles-code": "CN(C)CCNC(=O)c1ccc(-c2cnc3ccc(NCC4CC4)nn23)cc1", "experimental-system": "Mitogen-activated protein kinase 14 (Homo sapiens)", "IC50": "> 100 µM"}
{"smiles-code": "O=C(NC[C@@H]1CCCN1)c1ccc(-c2cnc3ccc(NCc4ccc(Cl)c(Cl)c4)nn23)cc1", "experimental-system": "Mitogen-activated protein kinase 14 (Homo sapiens)", "IC50": "> 100 µM"}

# context switch: different compound, same IC50
// returns reported IC50 for input O=C(NC[C@@H]1CCCN1)c1ccc(-c2cnc3ccc(NCC4CC4)nn23)cc1
> 100 µM

* * *

experimental-system: Cyclin-dependent kinase 2 (Homo sapiens)
method: Inhibition of recombinant CDK2 after 15 mins
Property: IC50; scope: individual compounds

{"smiles-code": "O=C(NC[C@@H]1CCCN1)c1ccc(-c2cnc3ccc(NCC4CC4)nn23)cc1", "measured-parameter": "IC50", "value-observed": "> 100 µM"}

Name the recorded IC50 for O=C(NC[C@@H]1CCCN1)c1ccc(-c2cnc3ccc(NCc4ccc(Cl)c(Cl)c4)nn23)cc1 .
95 µM

Try this compound next: CN(C)CCNC(=O)c1ccc(-c2cnc3ccc(NCC4CC4)nn23)cc1
> 100 µM

Follow-up item: O=C(NC[C@@H]1CCCN1)c1ccc(-c2cnc3ccc(NCc4cccc(Cl)c4)nn23)cc1
> 100 µM

Further, for CN(C)CCNC(=O)c1ccc(-c2cnc3ccc(NCc4ccc(Cl)c(Cl)c4)nn23)cc1 ?
> 100 µM

Further, for O=C(NCCN1CCCC1)c1ccc(-c2cnc3ccc(NCc4ccc(Cl)c(Cl)c4)nn23)cc1 ?
> 100 µM

* * *

System: THP-1
method: Antiinflammatory activity in human THP1 cells assessed as inhibition of LPS-induced TNFalpha production after 4 hrs by ELISA
Format: functional, cell-based
experimental-setup: THP-1, 4 h
Field: label. Allowed values: yes (1) (IC50 < 5 µM) or no (0) (IC50 >= 5 µM).

Please review the following examples before continuing.
{"smiles-code": "CN(C)CCN(C)C(=O)c1ccc(-c2cnc3ccc(NCc4ccc(Cl)c(Cl)c4)nn23)cc1", "group-label": "no (0)"}
{"smiles-code": "CN(C)CCN(C)C(=O)c1ccc(-c2cnc3ccc(NCC4CC4)nn23)cc1", "group-label": "yes (1)"}
{"smiles-code": "CN(C)c1ccc2ncc(-c3ccc(C(=O)NC[C@@H]4CCCN4)cc3)n2n1", "group-label": "no (0)"}
{"smiles-code": "NC1CN(C(=O)c2ccc(-c3cnc4ccc(NCc5ccc(Cl)c(Cl)c5)nn34)cc2)C1", "group-label": "no (0)"}
{"smiles-code": "O=C(NCC1CCNCC1)c1ccc(-c2cnc3ccc(NCc4ccc(Cl)c(Cl)c4)nn23)cc1", "group-label": "no (0)"}
{"smiles-code": "O=C(NCCN1CCCC1)c1ccc(-c2cnc3ccc(NCc4ccc(Cl)c(Cl)c4)nn23)cc1", "group-label": "no (0)"}

hey, is IC50 for O=C(NCCN1CCCCC1)c1ccc(-c2cnc3ccc(NCc4ccc(Cl)c(Cl)c4)nn23)cc1 lower than 5 µM or not?
no (0)

* * *

Measured pIC50 values are reported for all entries that follow.
Tested on: THP-1
method: Antiinflammatory activity in human THP1 cells assessed as inhibition of LPS-induced TNFalpha production after 4 hrs by ELISA
Type: functional, cell-based
experimental-setup: THP-1, 4 h
pIC50 here: minus log base 10 of the concentration, concentration in moles per litre.

{"smiles-code": "O=C(NC[C@@H]1CCCN1)c1ccc(-c2cnc3ccc(NCc4ccc(Cl)c(Cl)c4)nn23)cc1", "pIC50": 5.40}

We now examine a further compound.
Notebook entry, THP-1 assay: pIC50 of NCCCNC(=O)c1ccc(-c2cnc3ccc(NCc4ccc(Cl)c(Cl)c4)nn23)cc1 = ?
5.33
